- target desc: HIV protease (Human immunodeficiency virus type 1 group M subtype B)
- Construct: HIV protease is diluted in the assay buffer to a final enzyme concentration of 12.3 nanomolar, based on a molecular weight of 10,780
- assay explanation: HIV protease enzyme assay (fluorescence, substrate 2-Ile-Nle-Phe(p-NO2)-Gln-ArgNH2)
- Format: biochemical
- condition context: Table 21; HIV protease enzyme assay; read-out: IC50
outcome measure: IC50
State the result as a value with its unit after it.

The molecule `O=C(N[C@@H](Cc1ccccc1)[C@H](O)CN(C1CCCCC1)S(=O)(=O)c1ccccc1)OCc1ccccc1` showed IC50 equal to 19 nM

The molecule `CC(C)CN(C[C@@H](O)[C@H](Cc1ccccc1)NC(=O)OCc1cncs1)S(=O)(=O)c1ccc2c(c1)CCO2` showed IC50 equal to 5 nM

The molecule `CC(C)CN(C[C@@H](O)[C@H](Cc1ccccc1)NC(=O)OCc1cccnc1)S(=O)(=O)c1ccccc1` showed IC50 equal to 9 nM

The molecule `CC(C)CN(C[C@@H](O)[C@H](Cc1ccccc1)NC(=O)OCc1cncs1)S(=O)(=O)c1cccc(N)c1` showed IC50 equal to 7 nM
